Every entry's value here was drawn from patent US20260130395A1.

assay: Stability of cannabinoid compounds and Vitamin E components in Beverage 1 (AB White) by LCMSMS; type: physicochemical; conditions: AB White stored at 8° C.; 180 days
Attribute: Stability of Plant-Derived Cannabinoid Compounds in AB White, 8° C.
outcomeMeasure: Stability of Plant-Derived Cannabinoid Compounds in AB White, 8° C. (µg/mL)

                                   molecule  observed
0  C=C(C)[C@@H]1CCC(C)=C[C@H]1c1c(O)cc(CCC)cc1O     0.150
1   CCCCCc1cc(O)c(C/C=C(\C)CCC=C(C)C)c(O)c1      4.71
2  CCCc1cc(O)c2c(c1)OC(C)(C)[C@@H]1CCC(C)=C[C@@H]21 [THCV, delta-9-tetrahydrocannabivarin]      3.59
3  C=C(C)[C@@H]1CCC(C)=C[C@H]1c1c(O)cc(CCCCC)c(C(=O)O)c1O      1.75
4  CCCCCc1cc(O)c2c(c1)OC(C)(CCC=C(C)C)C=C2 (stereo not shown)     0.319
5  CCCCCc1cc(O)c2c(c1)OC1(C)CCC3C1C2C3(C)C (stereo not shown)     0.542
6  C=C(C)[C@@H]1CCC(C)=C[C@H]1c1c(O)cc(CCCCC)cc1O [CBD, cannabidiol, reference compound]     27.59
7  CCCCCc1cc2c(c(O)c1C(=O)O)[C@@H]1C=C(C)CC[C@H]1C(C)(C)O2 [D9 THCA, delta-9-tetrahydrocannabinolic acid]     0.941
8  CCCCCc1cc(O)c2c(c1)OC(C)(C)[C@@H]1CCC(C)=C[C@@H]21 [D9 THC, delta-9-tetrahydrocannabinol, reference compound]     11.66
9  CCCCCc1cc(O)c2c(c1)OC(C)(C)c1ccc(C)cc1-2      2.77

----------
Assay: Stability of cannabinoid entourage and Vitamin E components of the powder concentrate by LCMSMS
Assay type: physicochemical
Conditions: powder stored at 21-25° C.; 17 days
Method: At each time period, 0.05 g of powder was dissolved in 10 ml-15 of ethanol, diluted to fall within the analytical range, and injected into the LCMSMS for analysis.
outcomeMeasure: Stability of Plant-Derived Cannabinoid Compounds in Powder Concentrate (mg/g powder)

In [3]: df
Out[3]:
                                   compound   unitabbrev  observed
0  C=C(C)[C@@H]1CCC(C)=C[C@H]1c1c(O)cc(CCC)cc1O  mg/g powder     0.051
1  C=C(C)[C@@H]1CCC(C)=C[C@H]1c1c(O)cc(CCCCC)c(C(=O)O)c1O  mg/g powder     0.421
2  CCCCCc1cc(O)c2c(c1)OC(C)(CCC=C(C)C)C=C2 (stereo not shown)  mg/g powder     0.070
3  CCCCCc1cc(O)c2c(c1)OC(C)(C)c1ccc(C)cc1-2  mg/g powder     0.465

----------
experiment: Stability of cannabinoid compounds and Vitamin E components in Beverage 1 (AB White) by LCMSMS; type: physicochemical; settings: AB White stored at 21-25° C.; 210 days
// assign 1 if Stability of Plant-Derived Cannabinoid Compounds in AB White, 21-25° C. falls strictly below 0.9 µg/mL, else -1 (ties count as -1)

In [3]: df
Out[3]:
                                   compound  classlabel
0   CCCCCc1cc(O)c(C/C=C(\C)CCC=C(C)C)c(O)c1          -1
1  CCCCCc1cc(O)c2c(c1)OC1(C)CCC3C1C2C3(C)C (stereo not drawn)           1
2  C=C(C)[C@@H]1CCC(C)=C[C@H]1c1c(O)cc(CCCCC)c(C(=O)O)c1O          -1
3  CCCCCc1cc(O)c2c(c1)OC(C)(C)c1ccc(C)cc1-2          -1
4  CCCCCc1cc(O)c2c(c1)OC(C)(CCC=C(C)C)C=C2 (stereo not drawn)           1
5  CCCc1cc(O)c2c(c1)OC(C)(C)[C@@H]1CCC(C)=C[C@@H]21 [THCV, delta-9-tetrahydrocannabivarin]          -1
6  C=C(C)[C@@H]1CCC(C)=C[C@H]1c1c(O)cc(CCC)cc1O           1
7  CCCCCc1cc(O)c2c(c1)OC(C)(C)[C@@H]1CCC(C)=C[C@@H]21 [D9 THC, delta-9-tetrahydrocannabinol, reference compound]          -1
